System: CAL-51
Experiment: drug sensitivity score (DSS), CellTiter-Glo (DSS (AUC-based score)); higher = stronger drug effect (viability inhibition or cytotoxicity); extreme values may be limits of the assay
Conditions: incubation time: 72 h
Answer each item with its documented drug sensitivity score.
Output spec: single numeric token, no unit.

Task item: Tell me measured drug sensitivity score for NC(=O)c1cccc2cn(-c3ccc([C@@H]4CCCNC4)cc3)nc12 [MK-4827] please.
Reply: 0

Task item: Tell me measured drug sensitivity score for CCCCCOC(=O)Nc1nc(=O)n([C@@H]2O[C@H](C)[C@@H](O)[C@H]2O)cc1F [Capecitabine] please.
Reply: 0

Task item: Tell me measured drug sensitivity score for CO[C@H](C(=O)[C@@H](O)[C@@H](C)O)[C@@H]1Cc2cc3cc(O[C@H]4C[C@@H](O[C@@H]5C[C@@H](O)[C@H](O)[C@@H](C)O5)[C@H](O)[C@@H](C)O4)c(C)c(O)c3c(O)c2C(=O)[C@H]1O[C@H]1C[C@@H](O[C@@H]2C[C@@H](O)[C@@H](O[C@@H]3C[C@](C)(O)[C@H](O)[C@@H](C)O3)[C@@H](C)O2)[C@H](O)[C@@H](C)O1 [Plicamycin] please.
Reply: 18.2

Task item: Tell me measured drug sensitivity score for CN1CCc2c(c3ccccc3n2Cc2ccc(C(=O)NO)cc2)C1 [Tubastatin A] please.
Reply: 11.2

Task item: Tell me measured drug sensitivity score for O=NN(CCCl)C(=O)NC1CCCCC1 [Lomustine] please.
Reply: 0

###

Test system: CAL-85-1
Settings: 72 h
1 if EC50, CellTox Green is below 0.009 µM. -1 if not; exact matches included in -1.

Task item: Threshold test, EC50, CellTox Green < 0.009 µM: Nc1nc(Cl)nc2c1ncn2[C@@H]1O[C@H](CO)[C@@H](O)[C@@H]1F [Clofarabine]
Reply: -1

Task item: Threshold test, EC50, CellTox Green < 0.009 µM: CCc1cnn2c(NCc3ccc[n+]([O-])c3)cc(N3CCCC[C@H]3CCO)nc12 [Dinaciclib]
Reply: -1

Task item: Threshold test, EC50, CellTox Green < 0.009 µM: COc1cc2c(cc1-c1c(C)noc1C)ncc1[nH]c(=O)n([C@H](C)c3ccccn3)c12 [I-BET151]
Reply: -1

Task item: Threshold test, EC50, CellTox Green < 0.009 µM: CC[C@@H]1C(=O)N(C)c2cnc(Nc3ccc(C(=O)N[C@H]4CC[C@H](N5CCN(CC6CC6)CC5)CC4)cc3OC)nc2N1C(C)C [Volasertib]
Reply: 1

Task item: Threshold test, EC50, CellTox Green < 0.009 µM: Cc1cc2c(F)c(Oc3ncnn4cc(OC[C@@H](C)O)c(C)c34)ccc2[nH]1 [Brivanib]
Reply: -1

###

Test system: HCC1143
Assay: drug sensitivity score (DSS), CellTiter-Glo (DSS (AUC-based score)); higher = stronger drug effect (viability inhibition or cytotoxicity); extreme values may be limits of the assay
Conditions: incubation time: 72 h
Answer each item with its documented drug sensitivity score.
Output spec: single numeric token, no unit.

Task item: Under HCC1143, report drug sensitivity score for CO[C@H](C(=O)[C@@H](O)[C@@H](C)O)[C@@H]1Cc2cc3cc(O[C@H]4C[C@@H](O[C@@H]5C[C@@H](O)[C@H](O)[C@@H](C)O5)[C@H](O)[C@@H](C)O4)c(C)c(O)c3c(O)c2C(=O)[C@H]1O[C@H]1C[C@@H](O[C@@H]2C[C@@H](O)[C@@H](O[C@@H]3C[C@](C)(O)[C@H](O)[C@@H](C)O3)[C@@H](C)O2)[C@H](O)[C@@H](C)O1 [Plicamycin]
Reply: 4.54

Task item: Under HCC1143, report drug sensitivity score for Cc1cc2c(F)c(Oc3ncnn4cc(OC[C@@H](C)O)c(C)c34)ccc2[nH]1 [Brivanib]
Reply: 0

Task item: Under HCC1143, report drug sensitivity score for Cn1cc(C[C@@H](N)C(=O)O)c2ccccc21 [1-methyl-D-tryptophan]
Reply: 0

Task item: Under HCC1143, report drug sensitivity score for N[C@@H](Cc1ccc(N(CCCl)CCCl)cc1)C(=O)O [Melphalan]
Reply: 13.9

Task item: Under HCC1143, report drug sensitivity score for CCCc1cc(C)[nH]c(=O)c1CNC(=O)c1cc(-c2ccnc(N3CCN(C)CC3)c2)cc2c1cnn2C(C)C [GSK343]
Reply: 0

Task item: Under HCC1143, report drug sensitivity score for O=C(O)CC[C@H]1CC[C@@](c2cc(F)ccc2F)(S(=O)(=O)c2ccc(Cl)cc2)CC1 [MK-0752]
Reply: 0

###

System: HCC1143
Assay: normalised response (% of control), CellTiter-Glo; higher = more viable cells (100 = DMSO, 0 = benzethonium chloride kill control)
Details: incubation time: 72 h
MEASUREMENT LABEL: normalised response (%)
The response must be a number in % with no trailing unit.

Task item: Tell me measured normalised response for NC(=O)NO [Hydroxyurea] (1000 nM) please.
Reply: 105

Task item: Tell me measured normalised response for CCCc1cc(C)[nH]c(=O)c1CNC(=O)c1cc(-c2ccnc(N3CCN(C)CC3)c2)cc2c1cnn2C(C)C [GSK343] (100 nM) please.
Reply: 93.2

Task item: Tell me measured normalised response for CC(C)C(=O)Nc1ccc([N+](=O)[O-])c(C(F)(F)F)c1 [Flutamide] (100 nM) please.
Reply: 103

Task item: Tell me measured normalised response for CCc1cnn2c(NCc3ccc[n+]([O-])c3)cc(N3CCCC[C@H]3CCO)nc12 [Dinaciclib] (10 nM) please.
Reply: 68.5

###

System: CAL-148
Assay: normalised response (% of control), CellTiter-Glo; higher = more viable cells (100 = DMSO, 0 = benzethonium chloride kill control)
Details: incubation time: 72 h
MEASUREMENT LABEL: normalised response (%)
The response must be a number in % with no trailing unit.

Task item: Tell me measured normalised response for CC(C)NC[C@@H](C(=O)N1CCN(c2ncnc3c2[C@H](C)C[C@H]3O)CC1)c1ccc(Cl)cc1 [GDC-0068] (1 nM) please.
Reply: 95.3

Task item: Tell me measured normalised response for COc1cc2c(N3CCN(C(=O)Nc4ccc(OC(C)C)cc4)CC3)ncnc2cc1OCCCN1CCCCC1 [Tandutinib] (0.1 nM) please.
Reply: 102

Task item: Tell me measured normalised response for N[C@@H](Cc1ccc(N(CCCl)CCCl)cc1)C(=O)O [Melphalan] (1.25 nM) please.
Reply: 93.2

Task item: Tell me measured normalised response for O=C(O)CC[C@H]1CC[C@@](c2cc(F)ccc2F)(S(=O)(=O)c2ccc(Cl)cc2)CC1 [MK-0752] (1 nM) please.
Reply: 107

Task item: Tell me measured normalised response for Cn1nnc2c(C(N)=O)ncn2c1=O [Temozolomide] (1 nM) please.
Reply: 96.2

Task item: Tell me measured normalised response for NC(=O)c1cccc2cn(-c3ccc([C@@H]4CCCNC4)cc3)nc12 [MK-4827] (1 nM) please.
Reply: 115

Task item: Tell me measured normalised response for COc1cc2c(cc1-c1c(C)noc1C)ncc1[nH]c(=O)n([C@H](C)c3ccccn3)c12 [I-BET151] (10 nM) please.
Reply: 111

Task item: Tell me measured normalised response for CCCc1cc(C)[nH]c(=O)c1CNC(=O)c1cc(-c2ccnc(N3CCN(C)CC3)c2)cc2c1cnn2C(C)C [GSK343] (1 nM) please.
Reply: 84.4

Task item: Tell me measured normalised response for Nc1nc(Cl)nc2c1ncn2[C@@H]1O[C@H](CO)[C@@H](O)[C@@H]1F [Clofarabine] (1 nM) please.
Reply: 90.5

Task item: Tell me measured normalised response for Cc1c(N)nc([C@H](CC(N)=O)NC[C@H](N)C(N)=O)nc1C(=O)N[C@H](C(=O)N[C@H](C)[C@@H](O)[C@H](C)C(=O)N[C@H](C(=O)NCCc1nc(-c2nc(C(=O)NCCC[S+](C)C)cs2)cs1)[C@@H](C)O)[C@@H](OC1OC(CO)C(O)C(O)C1OC1OC(CO)C(O)C(OC(N)=O)C1O)c1cnc[nH]1 (some centres undefined) [Bleomycin] (10 nM) please.
Reply: 85

Task item: Tell me measured normalised response for CCc1c(C(=O)C(N)=O)c2c(OCC(=O)O)cccc2n1Cc1ccccc1 [Varespladib] (1 nM) please.
Reply: 109

Task item: Tell me measured normalised response for COc1cc2c(cc1-c1c(C)noc1C)ncc1[nH]c(=O)n([C@H](C)c3ccccn3)c12 [I-BET151] (1 nM) please.
Reply: 104

Task item: Tell me measured normalised response for COc1cc2c(Oc3ccc(NC(=O)C4(C(=O)Nc5ccc(F)cc5)CC4)cc3F)ccnc2cc1OCCCN1CCOCC1 [Foretinib] (1 nM) please.
Reply: 101

Task item: Tell me measured normalised response for COc1cc2c(Oc3ccc(NC(=O)C4(C(=O)Nc5ccc(F)cc5)CC4)cc3F)ccnc2cc1OCCCN1CCOCC1 [Foretinib] (100 nM) please.
Reply: 102

Task item: Tell me measured normalised response for CC/C(=C(\c1ccccc1)c1ccc(OCCN(C)C)cc1)c1ccccc1 [Tamoxifen] (1 nM) please.
Reply: 103

Task item: Tell me measured normalised response for C[C@@H](C(=O)O)c1ccc(-c2ccccc2)c(F)c1 [Tarenflurbil] (1 nM) please.
Reply: 98.8

Task item: Tell me measured normalised response for CC(C)C[C@H](NC(=O)[C@H](CCc1ccccc1)NC(=O)CN1CCOCC1)C(=O)N[C@@H](Cc1ccccc1)C(=O)N[C@@H](CC(C)C)C(=O)[C@@]1(C)CO1 [Carfilzomib] (1 nM) please.
Reply: 108

Task item: Tell me measured normalised response for Cc1c(N)nc([C@H](CC(N)=O)NC[C@H](N)C(N)=O)nc1C(=O)N[C@H](C(=O)N[C@H](C)[C@@H](O)[C@H](C)C(=O)N[C@H](C(=O)NCCc1nc(-c2nc(C(=O)NCCC[S+](C)C)cs2)cs1)[C@@H](C)O)[C@@H](OC1OC(CO)C(O)C(O)C1OC1OC(CO)C(O)C(OC(N)=O)C1O)c1cnc[nH]1 (some centres undefined) [Bleomycin] (1 nM) please.
Reply: 93.2

Task item: Tell me measured normalised response for N[C@@H](Cc1ccc(N(CCCl)CCCl)cc1)C(=O)O [Melphalan] (1250 nM) please.
Reply: 7.68

Task item: Tell me measured normalised response for COc1cc(Nc2ncc(F)c(Nc3ccc4c(n3)N(COP(=O)(O)O)C(=O)C(C)(C)O4)n2)cc(OC)c1OC [Fostamatinib] (250 nM) please.
Reply: 91.4

Task item: Tell me measured normalised response for CC(C)NC[C@@H](C(=O)N1CCN(c2ncnc3c2[C@H](C)C[C@H]3O)CC1)c1ccc(Cl)cc1 [GDC-0068] (1000 nM) please.
Reply: 19

Task item: Tell me measured normalised response for CC(C)n1nc(-c2ccc3oc(N)nc3c2)c2c(N)ncnc21 [INK128] (100 nM) please.
Reply: 32.7

Task item: Tell me measured normalised response for NC1(c2ccc(-c3nc4ccn5c(=O)[nH]nc5c4cc3-c3ccccc3)cc2)CCC1 [MK-2206] (100 nM) please.
Reply: 97

Task item: Tell me measured normalised response for C[C@]12C=CC(=O)C=C1CC[C@@H]1[C@@H]2C(=O)C[C@@]2(C)[C@H]1CC[C@]2(O)C(=O)CO [Prednisone] (1000 nM) please.
Reply: 105

Data origin: the supplement of paper PMC4862054
